The measurements presented in this section are drawn from paper PMC3475447.

# target.of.assay: ATPBD of A. fulgidus CopB (Strep-tagged) (Archaeoglobus fulgidus)
# Sequence (O30085 372-636): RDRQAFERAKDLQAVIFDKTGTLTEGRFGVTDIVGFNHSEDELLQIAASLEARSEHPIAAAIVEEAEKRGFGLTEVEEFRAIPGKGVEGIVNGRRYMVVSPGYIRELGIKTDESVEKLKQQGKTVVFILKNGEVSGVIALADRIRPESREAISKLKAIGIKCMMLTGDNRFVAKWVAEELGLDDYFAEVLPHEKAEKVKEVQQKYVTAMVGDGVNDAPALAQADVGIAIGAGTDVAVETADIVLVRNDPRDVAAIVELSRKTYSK
endpoint.label: Kd (µM)
The answer is to be given in µM; state only the numeric part.

Input line: Please provide the recorded Kd for Nc1ncnc2c1ncn2[C@@H]1O[C@H](COP(=O)(O)OP(=O)(O)OP(=O)(O)O)[C@@H](O)[C@H]1O , tested on ATPBD of A. fulgidus CopB (Strep-tagged) (Archaeoglobus fulgidus).
Output line: 34
